Measured target: PCSK9 (Homo sapiens, UniProt Q8NBP7, G670E/V474I)
Sequence (Q8NBP7 with tags, fused parts or gaps V474I/G670E): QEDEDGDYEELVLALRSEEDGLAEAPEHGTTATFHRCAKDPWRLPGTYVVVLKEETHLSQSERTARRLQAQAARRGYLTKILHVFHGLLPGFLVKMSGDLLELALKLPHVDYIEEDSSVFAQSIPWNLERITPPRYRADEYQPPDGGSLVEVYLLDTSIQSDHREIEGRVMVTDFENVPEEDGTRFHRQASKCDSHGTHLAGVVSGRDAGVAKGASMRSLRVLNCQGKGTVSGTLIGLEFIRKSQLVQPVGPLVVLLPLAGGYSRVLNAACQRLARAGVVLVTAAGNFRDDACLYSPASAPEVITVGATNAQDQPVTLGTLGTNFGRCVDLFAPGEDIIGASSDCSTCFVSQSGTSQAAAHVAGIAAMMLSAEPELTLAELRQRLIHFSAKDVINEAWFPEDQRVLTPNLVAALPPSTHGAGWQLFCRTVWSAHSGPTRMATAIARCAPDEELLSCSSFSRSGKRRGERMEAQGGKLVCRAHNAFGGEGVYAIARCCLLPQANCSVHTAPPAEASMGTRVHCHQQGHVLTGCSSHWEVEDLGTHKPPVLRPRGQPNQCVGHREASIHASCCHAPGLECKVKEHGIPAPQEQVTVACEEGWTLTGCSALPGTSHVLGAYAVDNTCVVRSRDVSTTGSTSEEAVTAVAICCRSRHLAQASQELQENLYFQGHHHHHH
Protocol text: biochemical
Measured property: IC50 (nM)
Give your result in nM as a bare value.

Look over these answered cases.
COc1cccn(-c2ccc(N[C@H]3CC[C@H](Nc4cnc(C)cn4)C3)nc2)c1=O (single isomer, unassigned) [Example 171]; 602
O=c1ccccn1-c1ccc(N[C@H]2CC[C@H](Nc3cnc(OC(F)F)cn3)C2)nc1 [Example 86]; 73
O=c1[nH]ccnc1N[C@H]1CC[C@H](Nc2ccc(-n3ccccc3=O)cn2)C1 [Example 252]; 2580

Now let's try a different one.
O=C1CC[C@H](CO)N1c1ccc(N[C@H]2CC[C@H](Nc3cnc(OC(F)F)cn3)C2)nc1 [Example 77] has a reported IC50 of 1530

----------
Measured target: potassium ion channel hERG (human Ether-á-go-go-Related Gene) (Homo sapiens)
Sequence (Q12809 whole entry): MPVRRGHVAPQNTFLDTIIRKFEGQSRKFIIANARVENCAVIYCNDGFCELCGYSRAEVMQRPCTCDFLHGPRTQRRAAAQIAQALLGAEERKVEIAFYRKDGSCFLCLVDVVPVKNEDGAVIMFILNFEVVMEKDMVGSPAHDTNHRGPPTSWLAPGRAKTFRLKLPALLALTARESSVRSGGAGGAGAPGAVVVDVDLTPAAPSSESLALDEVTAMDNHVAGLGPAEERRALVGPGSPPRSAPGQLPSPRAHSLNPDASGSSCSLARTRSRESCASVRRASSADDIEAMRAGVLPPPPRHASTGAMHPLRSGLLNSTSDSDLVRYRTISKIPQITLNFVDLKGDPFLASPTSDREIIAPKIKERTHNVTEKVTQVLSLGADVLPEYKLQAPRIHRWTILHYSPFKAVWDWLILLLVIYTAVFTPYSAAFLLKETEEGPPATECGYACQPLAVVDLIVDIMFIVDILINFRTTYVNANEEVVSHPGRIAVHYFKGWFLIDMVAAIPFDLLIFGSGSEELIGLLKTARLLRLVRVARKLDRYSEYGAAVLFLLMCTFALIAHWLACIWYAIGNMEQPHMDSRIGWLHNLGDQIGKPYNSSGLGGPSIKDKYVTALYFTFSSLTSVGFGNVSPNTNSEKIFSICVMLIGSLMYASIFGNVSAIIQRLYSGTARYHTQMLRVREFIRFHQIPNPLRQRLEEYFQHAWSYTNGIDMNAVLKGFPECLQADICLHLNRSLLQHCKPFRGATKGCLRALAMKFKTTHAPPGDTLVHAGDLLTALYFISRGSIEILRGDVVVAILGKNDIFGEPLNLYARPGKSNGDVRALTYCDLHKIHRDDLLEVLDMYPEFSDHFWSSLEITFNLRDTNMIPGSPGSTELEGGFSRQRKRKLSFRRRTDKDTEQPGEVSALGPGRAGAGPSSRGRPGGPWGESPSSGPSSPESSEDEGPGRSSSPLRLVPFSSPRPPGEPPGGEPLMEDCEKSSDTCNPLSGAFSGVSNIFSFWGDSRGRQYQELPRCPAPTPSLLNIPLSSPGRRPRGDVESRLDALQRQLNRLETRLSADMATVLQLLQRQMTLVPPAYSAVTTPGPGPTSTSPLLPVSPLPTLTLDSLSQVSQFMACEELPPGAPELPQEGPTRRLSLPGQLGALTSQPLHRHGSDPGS
Protocol text: Assay 5 - hERG assay (SyncroPatch 384PE patch clamp, CHO cells)
Run conditions: geometric mean; CHO cells over-expressing hERG; read-out: Assay 5 (hERG Hu CHO IF EPh CR-Syncro) GMean IC50
Method: Assay 5—hERG Assay (Human Ether-á-go-go-Related Gene) This assay (human Ether-á-go-go-Related Gene) measures activity of the compounds at the potassium ion channel hERG (human Ether-á-go-go-Related Gene). Experiments were performed on the SyncroPatch 384PE high throughput patch clamp platform at room temperature and medium resistance chips with 4 patch holes per site. […]
Measured property: IC50

Cc1cnc(N[C@H]2CC[C@H](Nc3ccc(-n4cc(-c5cnn(C)c5)ccc4=O)cn3)C2)cn1 has a reported IC50 of > 40.1 µM

Cn1c(=O)n(-c2ccc(N[C@H]3CC[C@H](Nc4cnc(OC(F)F)cn4)C3)nc2)c2ncccc21 has a reported IC50 of 12.2 µM

----------
In this section, each of the compounds is paired with its reported IC50.
Measured target: GSK3β (Glycogen synthase kinase-3 beta) (Homo sapiens)
Sequence (P49841 whole entry): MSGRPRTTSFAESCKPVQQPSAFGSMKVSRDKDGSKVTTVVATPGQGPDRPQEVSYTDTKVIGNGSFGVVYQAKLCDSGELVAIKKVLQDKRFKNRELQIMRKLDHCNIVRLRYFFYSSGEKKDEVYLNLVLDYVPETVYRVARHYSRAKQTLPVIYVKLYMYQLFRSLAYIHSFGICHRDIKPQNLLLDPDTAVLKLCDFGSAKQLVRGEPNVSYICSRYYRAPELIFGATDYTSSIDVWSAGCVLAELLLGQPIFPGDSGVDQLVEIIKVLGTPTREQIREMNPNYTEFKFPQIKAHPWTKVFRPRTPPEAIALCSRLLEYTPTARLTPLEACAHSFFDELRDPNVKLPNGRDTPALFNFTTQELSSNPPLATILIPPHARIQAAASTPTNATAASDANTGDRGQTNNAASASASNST
Protocol text: Assay 6 - GSK3β assay (ThermoFisher Z-Lyte)
Format: biochemical
Run conditions: geometric mean; ATP Conc: 10 μM; read-out: Assay 6 (GSK3β FRET-Z-Lyte CR) GMean IC50 (μM) ATP Conc: 10

Look over these answered cases.
Cn1ccc2nc(N[C@H]3CC[C@H](Nc4ccc(-n5ccccc5=O)cn4)C3)cnc21 [Example 7]; > 10 µM
O=c1ccccn1-c1ccc(N[C@H]2CC[C@H](Nc3cnc(OC(F)(F)F)cn3)C2)nc1 [Example 111]; > 10 µM
O=c1ccccn1-c1ccc(N[C@H]2CC[C@H](Nc3cnc(OC(F)F)cn3)C2)nc1 [Example 86]; > 10 µM

Now let's try a different one.
Tested system GSK3β (Glycogen synthase kinase-3 beta) (Homo sapiens); IC50 recorded for CCSc1cnc(N[C@H]2CC[C@H](Nc3ccc(-n4ccccc4=O)cn3)C2)cn1 [Example 163] was > 10 µM

----------
Measured target: PCSK9 (Homo sapiens, UniProt Q8NBP7, G670E/V474I)
Protocol text: Assay 3 - PCSK9 LDL-C uptake assay in HepG2 cells
Run conditions: 125 nM PCSK9, pHrodo Red-LDL, read-out: Assay 3 LDL uptake potency
Measured property: EC50
Give the figure together with its unit, number first.

Cc1cnc(N[C@H]2CC[C@H](Nc3ccc(-n4cccc(C)c4=O)cn3)C2)cn1; 300 nM
Cc1cnc(N[C@H]2CC[C@H](Nc3ccc(-n4cccc(Cl)c4=O)cn3)C2)cn1; 100 nM
Cc1cnc(N[C@H]2CC[C@H](Nc3ccc(-n4cc(-c5nnn[nH]5)ccc4=O)cn3)C2)cn1; 200 nM
COc1cccn(-c2ccc(N[C@H]3CC[C@H](Nc4cnc(C)c(C)n4)C3)nc2)c1=O; 100 nM

Now let's try a different one.
O=c1[nH]c2ccccc2n1-c1ccc(N[C@H]2CC[C@H](Nc3cnc(Cl)cn3)C2)nc1 has a reported EC50 of 200 nM
